System: SETVI Foxtail, Green
Test: Preemergence herbicidal evaluation, SETVI
Format: in vivo, Setaria viridis, (L.) Beau
Parameters: scale not given here
Conditions: preemergence, rate 0.062 kg/ha
Measurement name: SETVI herbicidal rating
Give the value as a plain number.

// known answers, use as guide
Value (SETVI herbicidal rating, SETVI Foxtail, Green) for record Cc1ccc(-n2nnc3cc(F)c(-n4c(=O)cc(C(F)(F)F)n(C)c4=O)cc32)cc1 = 9.0

Value (SETVI herbicidal rating, SETVI Foxtail, Green) for record CCc1ccc(-n2nnc3cc(F)c(-n4c(=O)cc(C(F)(F)F)n(C)c4=O)cc32)cc1COC = 4.0

Value (SETVI herbicidal rating, SETVI Foxtail, Green) for record CC(C)c1ccc(-n2nnc3cc(F)c(-n4c(=O)cc(C(F)(F)F)n(C)c4=O)cc32)cc1 = 6.5

Value (SETVI herbicidal rating, SETVI Foxtail, Green) for record COC(=O)COc1ccc(-n2nnc3cc(F)c(-n4c(=O)cc(C(F)(F)F)n(C)c4=O)cc32)c(C)c1 = 0.0

Next:
Value (SETVI herbicidal rating, SETVI Foxtail, Green) for record COC(=O)C(C)Oc1ccc(C)cc1-n1nnc2cc(F)c(-n3c(=O)cc(C(F)(F)F)n(C)c3=O)cc21 (centres unmarked) = 0.0

Value (SETVI herbicidal rating, SETVI Foxtail, Green) for record Cc1ccccc1-n1nnc2cc(F)c(-n3c(=O)cc(C(F)(F)F)n(C)c3=O)cc21 = 9.0

Value (SETVI herbicidal rating, SETVI Foxtail, Green) for record COc1ccc(-n2nnc3cc(F)c(-n4c(=O)cc(C(F)(F)F)n(C)c4=O)cc32)cc1 = 9.0

Value (SETVI herbicidal rating, SETVI Foxtail, Green) for record C=CCOc1ccc(-n2nnc3cc(F)c(-n4c(=O)cc(C(F)(F)F)n(C)c4=O)cc32)c(C)c1 = 4.0

Value (SETVI herbicidal rating, SETVI Foxtail, Green) for record C=CCOc1ccc(C)cc1-n1nnc2cc(F)c(-n3c(=O)cc(C(F)(F)F)n(C)c3=O)cc21 = 9.0

Value (SETVI herbicidal rating, SETVI Foxtail, Green) for record COc1ccc(C)c(-n2nnc3cc(F)c(-n4c(=O)cc(C(F)(F)F)n(C)c4=O)cc32)c1 = 7.0

Value (SETVI herbicidal rating, SETVI Foxtail, Green) for record Cc1ccc(O)c(-n2nnc3cc(F)c(-n4c(=O)cc(C(F)(F)F)n(C)c4=O)cc32)c1 = 0.0

Value (SETVI herbicidal rating, SETVI Foxtail, Green) for record COCc1ccccc1-n1nnc2cc(F)c(-n3c(=O)cc(C(F)(F)F)n(C)c3=O)cc21 = 9.0

Value (SETVI herbicidal rating, SETVI Foxtail, Green) for record CCc1ccccc1-n1nnc2cc(F)c(-n3c(=O)cc(C(F)(F)F)n(C)c3=O)cc21 = 9.0

Value (SETVI herbicidal rating, SETVI Foxtail, Green) for record Cc1ccc(OCC(=O)O)cc1-n1nnc2cc(F)c(-n3c(=O)cc(C(F)(F)F)n(C)c3=O)cc21 = 0.0

Ref: patent US20020111274A1
